- assay-target: TAFV GP (YP_003815426.1) (Tai Forest Ebola virus, UniProt Q66810 33-676)
- test-name: flow cytometry on transiently transfected HEK293 cells

binder: 11881 (antibody, V domains shown) VH: QSMEESGGRLVTPGTPLTLTCTVSGFSLSIYSMSWVRQAPGKGLEWIGIIYLGDRAYYASWAKGRFTISKTSSTTVDLKITSPTTEDTATYFCARVAGYAGYGYAFYDAFDPWGPGTLVTVSS VL: DVVMTQTPASVSEPVGGTVTIKCQASQSIGSNLAWYQQKPGQPPKLLIYAASTLASGVPSRFKGSGSGTEFTLTINGVQCDDTATYYCQCTYYASTYVAETFGGGTEVVVK
binding result: binds
